Value source: patent US7728014B2

- Assayed System: human S1P3 receptor (Homo sapiens)
- Construct: expressed in transfected cells
- Measurement Description: FLIPR Ca+2 response assay, activation of human S1P3 receptor in T24 cells
- Assay type: cell-based
- Assay Conditions: T24 cells stably expressing human S1P3; tested 0.61 nM to 10,000 nM; NA = Not Active
pEC50 overview
Worth noting: pEC50 values are minus log10 of concentrations stated in mol/L.

State the recorded pEC50 for this entry: `COC(=O)c1cnc(-c2ccccc2)c(-c2ccccc2)n1` 5.39

State the recorded pEC50 for this entry: `CCOC(=O)c1ccc(-c2ccc(C)cc2)c(-c2ccccc2)n1` 6.13

State the recorded pEC50 for this entry: `CCCc1ccc(-c2ccc(C(=O)OC)nc2-c2ccccc2)cc1` 5.54

State the recorded pEC50 for this entry: `CCc1ccc(-c2ccc(C(=O)OC)nc2-c2ccccc2)cc1` 6.24

State the recorded pEC50 for this entry: `COC(=O)c1ccc(-c2ccccc2)c(-c2ccccc2)n1` 6.15

State the recorded pEC50 for this entry: `CCOC(=O)c1ccc(-c2ccc(CC)cc2)c(-c2ccccc2)n1` 5.85

State the recorded pEC50 for this entry: `CCC(=O)c1ccc(-c2ccccc2)c(-c2ccccc2)n1` 5.47

State the recorded pEC50 for this entry: `CC(=O)c1cnc(-c2ccccc2)c(-c2ccccc2)n1` 5.64

====

- Assayed System: human S1P3 receptor (Homo sapiens, UniProt Q99500)
- Construct: expressed in transfected cells
- Sequence (Q99500 whole entry): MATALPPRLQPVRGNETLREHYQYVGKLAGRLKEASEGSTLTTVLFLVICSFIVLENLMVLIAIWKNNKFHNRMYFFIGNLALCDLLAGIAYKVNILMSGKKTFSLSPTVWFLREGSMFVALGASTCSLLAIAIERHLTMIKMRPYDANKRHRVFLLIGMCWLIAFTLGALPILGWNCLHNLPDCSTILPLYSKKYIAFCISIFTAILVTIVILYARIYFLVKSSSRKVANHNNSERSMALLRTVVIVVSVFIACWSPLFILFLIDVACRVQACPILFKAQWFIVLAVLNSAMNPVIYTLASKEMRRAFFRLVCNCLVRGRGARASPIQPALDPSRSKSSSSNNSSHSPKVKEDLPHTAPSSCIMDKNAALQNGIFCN
- Measurement Description: FLIPR Ca+2 response assay, activation of human S1P3 receptor in T24 cells
- Type: cell-based
- Assay Conditions: T-24; receptor activity at highest dose (10 μM) relative to that induced by 5 nM sphingosine-1-phosphate; read-out: S1P3 (% efficacy)
Outcome: Y for Emax at 10 µM of at least 70%; N for anything lower.

Field: example entries. Status: answers known.
CCOC(=O)c1nnc(-c2ccc(CC)cc2)c(-c2ccccc2)n1 [Example 13]	N
CCOC(=O)c1ccc(-c2ccc(CC)cc2)c(-c2ccccc2)n1 [Example 23]	Y
COC(=O)c1ccc(-c2ccccc2)c(-c2ccc(C(F)(F)F)cc2)n1 [Example 35]	Y

Shifting focus to the molecule that follows.
Hello, I need to know if CC(=O)c1ccc(-c2ccccc2)c(-c2ccccc2)n1 [Example 75, 1-(5,6-Diphenyl-pyridin-2-yl)-ethanone] has measured Emax at 10 µM not below 70%. Thanks! N

====

- Assayed System: human S1P3 receptor (Homo sapiens, UniProt Q99500)
- Construct: expressed in transfected cells
- Measurement Description: FLIPR Ca+2 response assay, activation of human S1P3 receptor in T24 cells
- Type: cell-based
- Assay Conditions: T-24; receptor activity at highest dose (10 μM) relative to that induced by 5 nM sphingosine-1-phosphate; read-out: S1P3 (% efficacy)
Emax at 10 µM overview
In your response, the unit should come after the numeric value.

Some compounds with known Emax at 10 µM results, for comparison:
CCc1ccc(-c2ccc(C(=O)OC)nc2-c2ccncc2)cc1	90%
CCOC(=O)c1nnc(-c2ccccc2)c(-c2ccc(C(F)(F)F)cc2)n1	34%
CCC(=O)c1cnc(-c2ccccc2)c(-c2ccccc2)n1	95%
CC(=O)c1cnc(-c2ccccc2)c(-c2ccccc2)n1	61%
CCCc1ccc(-c2ccc(C(=O)OCC)nc2-c2ccccc2)cc1	50%
CCC(=O)c1ccc(-c2ccccc2)c(-c2ccc(C(F)(F)F)cc2)n1	30%
CCCc1ccc(-c2ccc(C(=O)OC)nc2-c2ccccc2)cc1	81%
COCc1ccc(-c2ccccc2)c(-c2ccccc2)n1	59%
CCc1ccc(-c2nnc(C(=O)OC)nc2-c2ccccc2)cc1	64%
COC(=O)c1cnc(-c2ccccc2)c(-c2ccccc2)n1	62%

State the recorded Emax at 10 µM for this entry: `CCOC(=O)c1ccc(-c2ccccc2)c(-c2ccc(CC)cc2)n1` 48%

State the recorded Emax at 10 µM for this entry: `CCOC(=O)c1ccc(-c2ccccc2)c(-c2ccc(C)cc2)n1` 46%

State the recorded Emax at 10 µM for this entry: `CCOC(=O)c1ccc(-c2ccc(C)cc2)c(-c2ccccc2)n1` 32%

State the recorded Emax at 10 µM for this entry: `CCC(=O)c1ccc(-c2ccccc2)c(-c2ccccc2)n1` 41%

State the recorded Emax at 10 µM for this entry: `CCc1ccc(-c2ccc(C(=O)OC)nc2-c2ccccc2)cc1` 88%

====

- Assayed System: human S1P3 receptor (Homo sapiens, UniProt Q99500)
- Construct: expressed in transfected cells
- Measurement Description: FLIPR Ca+2 response assay, activation of human S1P3 receptor in T24 cells
- Format: cell-based
- Assay Conditions: T-24; receptor activity at highest dose (10 μM) relative to that induced by 5 nM sphingosine-1-phosphate; read-out: S1P3 (% efficacy)
Reported Endpoint: Emax at 10 µM (%)
Answer in %, number only, no unit symbol.

COC(=O)c1ccc(-c2ccccc2)c(-c2ccccc2)n1	84

State the recorded Emax at 10 µM for this entry: CCOC(=O)c1ccc(-c2ccccc2)c(-c2ccccc2)n1 [Example 21, Ethyl 5,6-diphenylpyridine-2-carboxylate] 80

State the recorded Emax at 10 µM for this entry: `COC(=O)c1ccc(-c2ccc(C)cc2)c(-c2ccccc2)n1` 73
